Sourced from paper PMC11767451

test_details: Proof-of-concept mouse PK study, plasma levels of GEM-IB and metabolites by HPLC-MS/MS
Type: in vivo, mice
measurement_conditions: after GEM-IB 5 mg/kg i.p.
quantity_measured: Rate Constant (h⁻¹)
# output: bare number, implied unit h⁻¹

CCCCCN(C)CCC(O)(P(=O)(O)O)P(=O)(O)OP(=O)(O)OC[C@H]1O[C@@H](n2ccc(N)nc2=O)C(F)(F)[C@@H]1O (stereo partly drawn); 5.0
CCCCCN(C)CCC(O)(P(=O)(O)O)P(=O)(O)O [IB, ibandronate]; 2.6
Nc1ccn([C@@H]2O[C@H](CO)[C@@H](O)C2(F)F)c(=O)n1; 1.5

Input: Return reported Rate Constant; argument: Nc1ccn([C@@H]2O[C@H](COP(=O)(O)O)[C@@H](O)C2(F)F)c(=O)n1 [GEMMP, gemcitabine-5′-phosphate]
Output: 4.0

Input: Return reported Rate Constant; argument: `O=c1ccn([C@@H]2O[C@H](COP(=O)(O)O)[C@@H](O)C2(F)F)c(=O)[nH]1`
Output: 11.1

Input: Return reported Rate Constant; argument: `O=c1ccn([C@@H]2O[C@H](CO)[C@@H](O)C2(F)F)c(=O)[nH]1`
Output: 0.4

----------
test_details: Proof-of-concept dog PK study, plasma levels of GEM-IB and metabolites by HPLC-MS/MS
Format: in vivo, beagle dogs
measurement_conditions: beagle, iv, after GEM-IB 5 mg/kg 30 min i.v. infusion
quantity_measured: clearance (mL/min/kg)
# output: bare number, implied unit mL/min/kg

Input: Return reported clearance; argument: CCCCCN(C)CCC(O)(P(=O)(O)O)P(=O)(O)OP(=O)(O)OC[C@H]1O[C@@H](n2ccc(N)nc2=O)C(F)(F)[C@@H]1O (stereo partly shown)
Output: 284

----------
test_details: Stability in mouse plasma (accelerated, freeze-thaw, frozen PK samples)
Assay type: in vitro ADME
measurement_conditions: mouse plasma, 4 hours RT
Let's look at some compounds and their measured %-ACC (percent mean accuracy vs nominal).
# output: bare number, implied unit %

Nc1ccn([C@@H]2O[C@H](COP(=O)(O)O)[C@@H](O)C2(F)F)c(=O)n1 [GEMMP, gemcitabine-5′-phosphate]; 87.9
Nc1ccn([C@@H]2O[C@H](CO)[C@@H](O)C2(F)F)c(=O)n1; 89.3
O=c1ccn([C@@H]2O[C@H](COP(=O)(O)O)[C@@H](O)C2(F)F)c(=O)[nH]1; 80.5

Okay, now this compound:
Input: Return reported %-ACC (percent mean accuracy vs nominal); argument: `O=c1ccn([C@@H]2O[C@H](CO)[C@@H](O)C2(F)F)c(=O)[nH]1`
Output: 83.8

----------
test_details: Stability in dog plasma (accelerated, freeze-thaw, frozen PK samples)
Format: in vitro ADME
measurement_conditions: dog plasma, 3 freeze-thaw cycles (<−70 °C / bench)
Where %-ACC (% accuracy vs nominal) equals or exceeds 90%, the correct label is t; where it does not, the label is f.

Example cases with answers are listed next.
O=c1ccn([C@@H]2O[C@H](CO)[C@@H](O)C2(F)F)c(=O)[nH]1 [dFdU, 2′,2′-difluoro-2′-deoxyuridine]; t
CCCCCN(C)CCC(O)(P(=O)(O)O)P(=O)(O)OP(=O)(O)OC[C@H]1O[C@@H](n2ccc(N)nc2=O)C(F)(F)[C@@H]1O (stereo partly drawn) [GEM-IB]; f
Nc1ccn([C@@H]2O[C@H](CO)[C@@H](O)C2(F)F)c(=O)n1 [GEM, gemcitabine]; t

Below: the item to evaluate.
Input: Would you say CCCCCN(C)CCC(O)(P(=O)(O)O)P(=O)(O)O [IB, ibandronate] shows %-ACC (% accuracy vs nominal) at minimum 90%?
Output: t
